Assay Details: xn = mol fraction of the nth substance listed
Run Conditions: 318.15 K; 101.33 kPa; x2 = 0.8
Could you please report measured viscosity for the items listed next?
Give bare numbers, in mPa·s.

CCCCCCCCCCCC(=O)OCC + CCCO | 1.381
CCCCCCCCCCCC(=O)OCC + CCCCCCO | 2.079
CCCCCCCCCCCC(=O)OCC + CCCCCO | 1.776

Now for the compound whose viscosity we want.
Reported viscosity for CCCCCCCCCCCC(=O)OCC + CCCCO : what is it? 1.529

====

Could you please report measured viscosity for the items listed next?
Assay Details: xn = mol fraction of the nth substance listed
Run Conditions: 303.15 K; 101.33 kPa; x2 = 0.7
One number for each entry, in mPa·s.

Here is how some compounds turned out for viscosity.
CCCCCCCCCCCC(=O)OCC + CCCCO | 2.122
CCCCCCCCCCCC(=O)OCC + CCCO | 1.956
CCCCCCCCCCCC(=O)OCC + CCCCCO | 2.403

Now for the compound whose viscosity we want.
Reported viscosity for CCCCCCCCCCCC(=O)OCC + CCCCCCO : what is it? 2.771

====

Assay Details: xn = mol fraction of the nth substance listed
Run Conditions: 323.15 K; 101.33 kPa; x2 = 0.7
± gives the uncertainty stated by the source.
Endpoint Label: viscosity

CCCCCCCCCCCC(=O)OCC + CCCO | 1.315 ± 0.054 mPa·s
CCCCCCCCCCCC(=O)OCC + CCCCCO | 1.553 ± 0.064 mPa·s
CCCCCCCCCCCC(=O)OCC + CCCCO | 1.399 ± 0.057 mPa·s

Now for the compound whose viscosity we want.
Reported viscosity for CCCCCCCCCCCC(=O)OCC + CCCCCCO : what is it? 1.761 ± 0.072 mPa·s
